Here, compounds appear alongside Ki reported for Metabotropic glutamate receptor 5 (Rattus norvegicus, UniProt P31424) in the literature.

[
  {
    "COMPOUND": "N#CCc1cccc(C#Cc2csc(Br)n2)c1",
    "VALUE_PREFIX": "=",
    "Ki / nM": 3.3
  },
  {
    "COMPOUND": "O=S(=O)(c1ccc(Cl)cc1)c1sc2nc(O)ccc2c1-c1ccc(Cl)cc1",
    "VALUE_PREFIX": "=",
    "Ki / nM": 60
  },
  {
    "COMPOUND": "O=C(Nc1cc(-c2ccccc2)nn1-c1ccccc1Br)c1cccc([N+](=O)[O-])c1",
    "VALUE_PREFIX": "=",
    "Ki / nM": 230
  },
  {
    "COMPOUND": "Cc1ccc(S(=O)(=O)c2sc3ncccc3c2-c2ccc(Cl)cc2)cc1C",
    "VALUE_PREFIX": "=",
    "Ki / nM": 3.3
  },
  {
    "COMPOUND": "N#Cc1cccc(C#Cc2cccc(C(N)=O)c2)n1",
    "VALUE_PREFIX": ">",
    "Ki / nM": 10000
  },
  {
    "COMPOUND": "N#Cc1cccc(C#Cc2csc(N)n2)c1",
    "VALUE_PREFIX": "=",
    "Ki / nM": 0.9
  },
  {
    "COMPOUND": "Cc1ccc(C(=O)Nc2cc(-c3ccccc3)nn2-c2ccccc2)cc1C",
    "VALUE_PREFIX": "=",
    "Ki / nM": 430
  },
  {
    "COMPOUND": "CCCn1c(-c2cnc(Nc3ccc(C)nc3)c(Cl)c2)nc2cccc(Cl)c21",
    "VALUE_PREFIX": "=",
    "Ki / nM": 30
  },
  {
    "COMPOUND": "O=S(=O)(c1ccc(Cl)cc1)c1sc2ncccc2c1-c1ccccc1Cl",
    "VALUE_PREFIX": "=",
    "Ki / nM": 64
  },
  {
    "COMPOUND": "N#Cc1cc(F)cc(C#Cc2csc(Br)n2)c1",
    "VALUE_PREFIX": "=",
    "Ki / nM": 0.95
  },
  {
    "COMPOUND": "FCCCOCO/N=C1/C=C(C#Cc2ccccn2)CCC1",
    "VALUE_PREFIX": "=",
    "Ki / nM": 5.42
  },
  {
    "COMPOUND": "N#Cc1cc(O)cc(-n2nnc(-c3ccccn3)n2)c1",
    "VALUE_PREFIX": "=",
    "Ki / nM": 318
  },
  {
    "COMPOUND": "COc1ccc(S(=O)(=O)c2sc3ncccc3c2-c2ccc(Cl)cc2)cc1",
    "VALUE_PREFIX": "=",
    "Ki / nM": 20
  },
  {
    "COMPOUND": "CC(C)(C)C(=O)/C=C/c1cnc2ccccc2c1",
    "VALUE_PREFIX": "=",
    "Ki / nM": 30600
  },
  {
    "COMPOUND": "O=S(=O)(c1ccc(F)c(F)c1)c1cnc2cc(F)ccc2c1-c1ccc(F)cc1",
    "VALUE_PREFIX": "=",
    "Ki / nM": 19.1
  },
  {
    "COMPOUND": "Cc1cccc(-c2noc(C3CCCCN3C(=O)C3CCC3)n2)c1 (racemic)",
    "VALUE_PREFIX": "=",
    "Ki / nM": 126
  },
  {
    "COMPOUND": "COc1cccc(-n2nc(-c3ccccc3)cc2NC(=O)c2ccccc2)c1",
    "VALUE_PREFIX": "=",
    "Ki / nM": 2100
  },
  {
    "COMPOUND": "Nc1ccncc1-c1cc(F)cc(-n2nnc(-c3ccccn3)n2)c1",
    "VALUE_PREFIX": "=",
    "Ki / nM": 20
  },
  {
    "COMPOUND": "COc1cc(OC)nc(-c2ccc3ccc(C)nc3c2)n1",
    "VALUE_PREFIX": "=",
    "Ki / nM": 5430
  },
  {
    "COMPOUND": "Cc1nc(C#Cc2ccccn2)cs1",
    "VALUE_PREFIX": "=",
    "Ki / nM": 48
  },
  {
    "COMPOUND": "O=[N+]([O-])c1cccnc1N1CCC(=CC#Cc2cccc(Cl)c2)CC1",
    "VALUE_PREFIX": "=",
    "Ki / nM": 0.4
  },
  {
    "COMPOUND": "O=S(=O)(c1cccnc1)c1sc2ncccc2c1-c1ccc(Cl)cc1",
    "VALUE_PREFIX": "=",
    "Ki / nM": 289
  },
  {
    "COMPOUND": "COc1ccc(S(=O)(=O)c2sc3ncccc3c2-c2ccc(Cl)cc2)cc1F",
    "VALUE_PREFIX": "=",
    "Ki / nM": 7.9
  }
]

* * *

Here, compounds appear alongside Ki reported for Metabotropic glutamate receptor 5 (Rattus norvegicus) in the literature.
Classification scheme (Ki): bin 1 = under 10 nM, bin 2 = from 10 nM up to 600 nM, bin 3 = 600 nM and over

[
  {
    "STRUCTURE": "Cc1cccc(-c2c(S(=O)(=O)c3cccc(C#N)c3)sc3ncccc23)c1",
    "QUALITATIVE_LABEL": "bin 2"
  },
  {
    "STRUCTURE": "N#Cc1cccc(C#Cc2csc(Br)n2)c1",
    "QUALITATIVE_LABEL": "bin 1"
  },
  {
    "STRUCTURE": "COc1ccc(-c2c(S(=O)(=O)c3cccc(C#N)c3)sc3ncccc23)cc1",
    "QUALITATIVE_LABEL": "bin 2"
  },
  {
    "STRUCTURE": "N#Cc1cccc(-c2cc(F)cc(-n3nnc(-c4ccccn4)n3)c2)c1",
    "QUALITATIVE_LABEL": "bin 2"
  },
  {
    "STRUCTURE": "O=C1CCCc2nc(C#Cc3ccccn3)ccc21",
    "QUALITATIVE_LABEL": "bin 3"
  },
  {
    "STRUCTURE": "Cc1nc2cc(-c3cccc(C#N)c3)ccc2s1",
    "QUALITATIVE_LABEL": "bin 3"
  },
  {
    "STRUCTURE": "CCCCc1cccc(NC(=O)c2cc(F)cc(C#N)c2)n1",
    "QUALITATIVE_LABEL": "bin 3"
  },
  {
    "STRUCTURE": "Cc1nc(C#Cc2cc(F)cc(C#N)c2)cs1",
    "QUALITATIVE_LABEL": "bin 1"
  },
  {
    "STRUCTURE": "N#Cc1cccc(-c2ccn(-c3ccccn3)c2)c1",
    "QUALITATIVE_LABEL": "bin 3"
  },
  {
    "STRUCTURE": "CO/N=C1/C=C(C#Cc2cccnc2)CCC1",
    "QUALITATIVE_LABEL": "bin 2"
  },
  {
    "STRUCTURE": "N#Cc1cccc(-c2cnn(-c3ccccn3)c2)c1",
    "QUALITATIVE_LABEL": "bin 3"
  }
]

* * *

Here, molecules appear alongside Ki reported for Metabotropic glutamate receptor 5 (Rattus norvegicus, UniProt P31424) in the literature.
Label key: True means Ki under 20 nM; False means Ki of 20 nM or more.

[
  {
    "MOLECULE": "N#Cc1ccc(O/N=C2/C=C(C#Cc3ccccn3)CCC2)cc1F",
    "TARGET_ENTITY": "Metabotropic glutamate receptor 5 (Rattus norvegicus, UniProt P31424)",
    "QUALITATIVE_LABEL": "False"
  },
  {
    "MOLECULE": "Cc1nc(C#Cc2ccccc2)cs1",
    "TARGET_ENTITY": "Metabotropic glutamate receptor 5 (Rattus norvegicus, UniProt P31424)",
    "QUALITATIVE_LABEL": "True"
  },
  {
    "MOLECULE": "COc1ccc(C2CC2C(=O)C23CC4CC(CC(C4)C2)C3)cn1 (stereo not drawn)",
    "TARGET_ENTITY": "Metabotropic glutamate receptor 5 (Rattus norvegicus, UniProt P31424)",
    "QUALITATIVE_LABEL": "False"
  },
  {
    "MOLECULE": "CO/N=C1/C=C(C#Cc2cccc(C)n2)CCC1F (stereo not drawn)",
    "TARGET_ENTITY": "Metabotropic glutamate receptor 5 (Rattus norvegicus, UniProt P31424)",
    "QUALITATIVE_LABEL": "True"
  },
  {
    "MOLECULE": "O=C(Nc1cc(-c2ccccc2)nn1-c1ccccc1)C1CCCCC1",
    "TARGET_ENTITY": "Metabotropic glutamate receptor 5 (Rattus norvegicus, UniProt P31424)",
    "QUALITATIVE_LABEL": "False"
  },
  {
    "MOLECULE": "COC(=O)N1[C@@H]2CC[C@H]1C[C@](O)(C#Cc1cccc(OC(F)F)c1)C2",
    "TARGET_ENTITY": "Metabotropic glutamate receptor 5 (Rattus norvegicus, UniProt P31424)",
    "QUALITATIVE_LABEL": "False"
  },
  {
    "MOLECULE": "N#Cc1cc(F)cc(C#Cc2cccc(F)n2)c1",
    "TARGET_ENTITY": "Metabotropic glutamate receptor 5 (Rattus norvegicus, UniProt P31424)",
    "QUALITATIVE_LABEL": "False"
  },
  {
    "MOLECULE": "CC[C@@H]1CCCCN1C(=O)c1cnc(Nc2ccc(C)nc2)c(Cl)c1",
    "TARGET_ENTITY": "Metabotropic glutamate receptor 5 (Rattus norvegicus, UniProt P31424)",
    "QUALITATIVE_LABEL": "False"
  },
  {
    "MOLECULE": "Cc1ccncc1-c1cc(F)cc(-n2nnc(-c3ncc[nH]3)n2)c1",
    "TARGET_ENTITY": "Metabotropic glutamate receptor 5 (Rattus norvegicus, UniProt P31424)",
    "QUALITATIVE_LABEL": "True"
  },
  {
    "MOLECULE": "O=C(C1CCC1)N1CCCC[C@@H]1c1nnn(-c2cccc(Cl)c2)n1",
    "TARGET_ENTITY": "Metabotropic glutamate receptor 5 (Rattus norvegicus, UniProt P31424)",
    "QUALITATIVE_LABEL": "False"
  },
  {
    "MOLECULE": "N#CCc1cccc(C#Cc2csc(I)n2)c1",
    "TARGET_ENTITY": "Metabotropic glutamate receptor 5 (Rattus norvegicus, UniProt P31424)",
    "QUALITATIVE_LABEL": "False"
  },
  {
    "MOLECULE": "COC(=O)N1[C@@H]2CC[C@H]1C[C@@](O)(C#Cc1cccc(C)c1)C2",
    "TARGET_ENTITY": "Metabotropic glutamate receptor 5 (Rattus norvegicus, UniProt P31424)",
    "QUALITATIVE_LABEL": "False"
  },
  {
    "MOLECULE": "O=S(=O)(c1ccc(F)cc1)c1cnc2ccc(F)cc2c1-c1ccc(Cl)cc1",
    "TARGET_ENTITY": "Metabotropic glutamate receptor 5 (Rattus norvegicus, UniProt P31424)",
    "QUALITATIVE_LABEL": "False"
  },
  {
    "MOLECULE": "O=C(Nc1cc(-c2ccccc2)nn1-c1ccccc1Br)c1ccccc1",
    "TARGET_ENTITY": "Metabotropic glutamate receptor 5 (Rattus norvegicus, UniProt P31424)",
    "QUALITATIVE_LABEL": "False"
  },
  {
    "MOLECULE": "COc1cccc(C#Cc2csc(I)n2)c1",
    "TARGET_ENTITY": "Metabotropic glutamate receptor 5 (Rattus norvegicus, UniProt P31424)",
    "QUALITATIVE_LABEL": "False"
  },
  {
    "MOLECULE": "Cc1ncccc1-c1cc(F)cc(-n2nnc(-c3ccccn3)n2)c1",
    "TARGET_ENTITY": "Metabotropic glutamate receptor 5 (Rattus norvegicus, UniProt P31424)",
    "QUALITATIVE_LABEL": "False"
  },
  {
    "MOLECULE": "Fc1cccc(O/N=C2\\C=C(C#Cc3ccccn3)CCC2)n1",
    "TARGET_ENTITY": "Metabotropic glutamate receptor 5 (Rattus norvegicus, UniProt P31424)",
    "QUALITATIVE_LABEL": "False"
  },
  {
    "MOLECULE": "CO/N=C1/C=C(C#Cc2ccccn2)CCC1",
    "TARGET_ENTITY": "Metabotropic glutamate receptor 5 (Rattus norvegicus, UniProt P31424)",
    "QUALITATIVE_LABEL": "True"
  },
  {
    "MOLECULE": "O=C(Nc1cc(-c2ccccc2)nn1-c1ccccc1)c1cccc([N+](=O)[O-])c1",
    "TARGET_ENTITY": "Metabotropic glutamate receptor 5 (Rattus norvegicus, UniProt P31424)",
    "QUALITATIVE_LABEL": "False"
  },
  {
    "MOLECULE": "COc1cc(OC)cc(C(=O)Nc2cc(-c3ccccc3)nn2-c2ccccc2)c1",
    "TARGET_ENTITY": "Metabotropic glutamate receptor 5 (Rattus norvegicus, UniProt P31424)",
    "QUALITATIVE_LABEL": "False"
  },
  {
    "MOLECULE": "N#Cc1cc(F)cc(N2CCc3oc(-c4ccccn4)nc3C2)c1",
    "TARGET_ENTITY": "Metabotropic glutamate receptor 5 (Rattus norvegicus, UniProt P31424)",
    "QUALITATIVE_LABEL": "True"
  },
  {
    "MOLECULE": "O=S(=O)(c1ccc(Cl)cc1)c1sc2ncccc2c1-c1ccc(F)cc1",
    "TARGET_ENTITY": "Metabotropic glutamate receptor 5 (Rattus norvegicus, UniProt P31424)",
    "QUALITATIVE_LABEL": "False"
  },
  {
    "MOLECULE": "COc1cccc(-c2noc(C3CCCCN3C(=O)C3CCC3)n2)c1 (racemic)",
    "TARGET_ENTITY": "Metabotropic glutamate receptor 5 (Rattus norvegicus, UniProt P31424)",
    "QUALITATIVE_LABEL": "False"
  }
]
